Molecular target: Peptide Deformylase (PDF) (Escherichia coli)
Sequence (P0A6K3 whole entry): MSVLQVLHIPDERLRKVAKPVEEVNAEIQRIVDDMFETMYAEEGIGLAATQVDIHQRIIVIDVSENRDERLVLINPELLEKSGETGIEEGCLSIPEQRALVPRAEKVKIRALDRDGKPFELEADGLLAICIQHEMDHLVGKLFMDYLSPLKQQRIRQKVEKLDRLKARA
The label Met is reserved for IC50 strictly under 6 µM; Not met covers values equal to or above it.

# compound, labelClass
data = [
    ("COC(=O)CNC(=O)c1ccc2c(c1)nc(C(Cc1ccc(O)cc1)NC(=O)CCS)n2C1CC1 (stereo not shown)", "Not met"),
    ("COC(=O)CNC(=O)c1ccc2c(c1)nc(C(Cc1ccc(O)cc1)NC(=O)CCC(=O)O)n2C1CC1 (stereo not shown)", "Not met"),
    ("COC(=O)CNC(=O)c1ccc2c(c1)nc(C(CCSC)NC(=O)CCC(=O)O)n2Cc1ccccc1 (stereo not shown)", "Not met"),
]

[ask] Consider the compound COC(=O)CNC(=O)c1ccc2c(c1)nc(C(Cc1ccc(O)cc1)NC(=O)CCC(=O)O)n2CC1CCCCC1 (stereo not shown) . Is its IC50 strictly less than 6 µM?
[reply] Not met

[ask] Find out if reported IC50 for CCC(NC(=O)CCC(=O)NO)c1nc2cc(C(=O)NCC(=O)OC)ccc2n1C1CC1 (stereo not shown) is less than 6 µM
[reply] Met

[ask] Take the compound CCCCn1c(C(Cc2ccccc2)NC(=O)CCC(=O)NO)nc2cc(C(=O)NCC(=O)OC)ccc21 (stereo not shown) and say whether its IC50 is less than 6 µM.
[reply] Met

[ask] Quick check: IC50 of COC(=O)CNC(=O)c1ccc2c(c1)nc(C(Cc1ccccc1)NC(=O)CCC(=O)O)n2Cc1ccc(Cl)cc1 (stereo not shown) under 6 µM?
[reply] Met

[ask] Consider COC(=O)CNC(=O)c1ccc2c(c1)nc(C(CCCCN)NC(=O)CCS)n2C1CC1 (stereo not shown) . Does its IC50 lie strictly below 6 µM?
[reply] Met

[ask] # check: IC50 < 6 µM for COC(=O)CNC(=O)c1ccc2c(c1)nc(C(Cc1ccccc1)NC(=O)CCC(=O)O)n2CCO (stereo not shown)
[reply] Not met

[ask] Confirm or reject: IC50 of CCCCn1c(C(Cc2cccc3ccccc23)NC(=O)CCC(=O)NO)nc2cc(C(=O)NCC(=O)OC)ccc21 (stereo not shown) lies strictly below 6 µM
[reply] Met

[ask] Hi there! Is IC50 for COC(=O)CNC(=O)c1ccc2c(c1)nc(C(Cc1ccccc1)NC(=O)CCS)n2CCO (stereo not shown) below 6 µM, do you know?
[reply] Not met

[ask] Criterion: IC50 strictly below 6 µM. Is it met by COC(=O)CNC(=O)c1ccc2c(c1)nc(C(Cc1ccccc1)NC(=O)CCC(=O)NO)n2CCN (stereo not shown) ?
[reply] Met

* * *

Target: Peptide Deformylase (PDF) (Staphylococcus aureus)
Sequence (P68826 1-183): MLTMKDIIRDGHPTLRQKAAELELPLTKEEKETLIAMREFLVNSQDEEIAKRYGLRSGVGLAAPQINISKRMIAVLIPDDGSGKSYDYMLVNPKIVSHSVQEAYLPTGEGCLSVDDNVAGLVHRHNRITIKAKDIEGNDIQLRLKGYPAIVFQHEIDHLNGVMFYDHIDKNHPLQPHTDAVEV
Some compounds, each annotated with its measured pIC50.
Quick note: pIC50 means taking -log10 of the concentration in moles per liter.

# compound, assaySystem, pIC50
measured = [
    ("COC(=O)CNC(=O)c1ccc2c(c1)nc(C(CCc1ccccc1)NC(=O)CCC(=O)O)n2C1CC1 (stereo not shown)", "Peptide Deformylase (PDF) (Staphylococcus aureus)", 5.57),
]

[ask] Looking for the measured pIC50 of COC(=O)CNC(=O)c1ccc2c(c1)nc(C(CCSC)NC(=O)CCC(=O)O)n2Cc1ccccc1 (stereo not shown) , can you help?
[reply] 4.50

[ask] May I ask what pIC50 has been recorded for CCC(NC(=O)CCS)c1nc2cc(C(=O)NCC(=O)OC)ccc2n1C1CC1 (stereo not shown) ?
[reply] 4.34
